- System: MCF7
- assayComment: NCI tumour cell line growth inhibition, 48 h
Active and inactive are the calls of the source. No stated cut-off is given here; in the data, active = GI50 up to about 1.1 µM and inactive = higher. Where a SMILES comes first, the peptide text is derived from it. The star is where a group is joined. Boc = CC(C)(C)OC(=O)*; nBu = CCCC*
Give one outcome, nothing more. List: 1 (yes) for active, 0 (no) for inactive

compound | className
CC(=O)/C(=C/N1CCNC1=S)C(=O)Nc1ccccc1C | 0 (no)

Inquiry: # outcome recorded in this test, key = O=S1(=O)NN=C(NCc2ccc(F)cc2)c2ccccc21
Reply text: 0 (no)

Inquiry: Consider next the compound NC(Cc1cccc([N+](=O)[O-])c1)C(=O)O (stereo unspecified) in the same way.
Reply text: 0 (no)

Inquiry: Cool, now CCCCOc1ccc(CC(NC(=O)OC(C)(C)C)C(=O)NC(C)C(=O)NC(Cc2ccccc2)C(=O)NCC(N)=O)cc1 (stereo unspecified) (Boc-Y(nBu)AFG-NH2; configuration not given here)
Reply text: 0 (no)

Inquiry: One more compound: CCCSCC(P(=O)(O)O)P(=O)(O)O.NC1CCCCC1
Reply text: 0 (no)

Inquiry: Then what about the compound COC(=O)/C=C/c1cnc2c(c1)oc(=O)n2CCc1ccccn1 ?
Reply text: 0 (no)

Inquiry: Then this compound: C=O.NNCCc1n[nH]c(=O)n1N
Reply text: 0 (no)

Inquiry: What would you report for COc1ccc(NC2=CC(=O)C(=O)c3ccccc32)nn1 ?
Reply text: 1 (yes)

Inquiry: And the next one, CC(C)(C)OC(=O)N1C(C2=COc3ccccc3O2)=COc2cccnc21 ?
Reply text: 0 (no)

Inquiry: # repeat for S=C1Cc2cc3ccccc3nc2-c2ccccc2N1
Reply text: 0 (no)

Inquiry: Then this compound: CCCCCC(=O)OCC1(CO)C/C(=C\CC(C(C)C)C(C)C)C(=O)O1 (stereo unspecified)
Reply text: 0 (no)

###

- System: SF-539
- assayComment: NCI tumour cell line growth inhibition, 48 h
Active and inactive are the calls of the source. Cut-off read from the data, not from the text of the source: active = GI50 up to about 1.1 µM and inactive = higher.
Just give me one of these, please: 1 (yes) for active, 0 (no) for inactive

compound | targetOrTestSystem | className
N#CC(Nc1cccc(C(F)(F)F)c1)c1ccccc1C(F)(F)F (stereo unspecified) | SF-539 | 0 (no)

Inquiry: For COc1ccc2c3c([nH]c2c1)CCN(CCCC(=O)c1ccc(F)cc1)C3 , which call appears in the assay record?
Reply text: 0 (no)

Inquiry: Could you do the same for COc1ccc2nc(-c3ccc(OCc4ccccc4)cc3)ccc2c1 , please?
Reply text: 0 (no)

###

# GI50 per record follows
- Test system: UACC-257
- assayComment: NCI tumour cell line growth inhibition, 48 h
Active and inactive are the calls of the source. Cut-off read from the data, not from the text of the source: active = GI50 up to about 1.1 µM and inactive = higher. Where a SMILES comes first, the peptide text is derived from it. The star is where a group is joined. Boc = CC(C)(C)OC(=O)*; nBu = CCCC*

Solved cases below.
compound | GI50
CCCN1CC=CCC1 | > 100 µM (inactive)
CC(C)c1cccc(C(C)C)c1NC(=O)C(=O)C1CCC2=C(Sc3ccccc3N2)C1=O (centres undefined) | 67.3 µM (inactive)
Cc1cc(C)nc(NS(=O)(=O)c2ccc(Nc3c4ccccc4nc4c(C(=O)Nc5ccc(S(=O)(=O)Nc6cc(C)on6)cc5)cccc34)cc2)n1 | 25.5 µM (inactive)

# evaluate next
Inquiry: Sample CCCCOc1ccc(CC(NC(=O)OC(C)(C)C)C(=O)NC(C)C(=O)NC(Cc2ccccc2)C(=O)NCC(N)=O)cc1 (centres undefined) (Boc-Y(nBu)AFG-NH2; configuration not given here) — what was its GI50?
Reply text: > 100 µM (inactive)

###

- Tested on: HT-29
- assayComment: NCI tumour cell line growth inhibition, 48 h
Activity calls are given as the source filed them. No stated cut-off is given here; in the data, active = GI50 up to about 1.1 µM and inactive = higher.
Reported GI50 values for a set of compounds

Answered cases to consult:
inputSmiles | endpointValue
CC(C)(CCl)NC(=O)c1cccc(C(=O)NC(C)(C)CCl)n1 | > 100 µM (inactive)
CCOC(CNCCC(=O)OC)OCC | > 10 µM (inactive)

Here is the next item to consider.
Inquiry: Requested read-out: GI50. Entry: Cc1cc(Br)c(N2C3=C(CC4=C2CCCC4=O)C(=O)CCC3)c(Br)c1
Reply text: 42.3 µM (inactive)

###

- Test system: OVCAR-5
- assayComment: NCI tumour cell line growth inhibition, 48 h
Calls of active or inactive are those of the source. No stated cut-off is given here; in the data, active = GI50 up to about 1.1 µM and inactive = higher. Residues, ends and D or L forms follow the SMILES beside them. *: point of attachment. OBn = c1ccc(CO*)cc1
property: GI50

// worked examples, GI50 included
molecule | endpointValue
C[C@]12CC[C@H]3[C@@H](CCC4=C[C@@H](OC5OCC(OC6OC(CO)C(O)C(O)C6O)C(O)C5O)CC[C@@]43C=O)[C@@]1(O)CCC2C1=CC(=O)OC1 (stereo partly drawn) | 1.86 µM (inactive)
CCN1CCCCCCCCCC(=N/O)/C(=N\O)C1 | > 100 µM (inactive)
NC(CCC(=O)OCc1ccccc1)C(=O)NC(CCC(=O)OCc1ccccc1)C(=O)O (stereo not drawn) (H-Glu(OBn)-Glu(OBn)-OH; configuration not given here) | > 100 µM (inactive)
N#CC1=C(N)n2c(s/c(=C\c3ccc(Cl)cc3)c2=O)=C(c2nc3ccccc3[nH]2)C1c1ccc(Cl)cc1 (stereo not drawn) | 2.02 µM (inactive)
COC(=O)c1c(O)ccc2c1c1c(n2Cc2ccccc2Cl)C(=O)c2ccccc2C1=O | 19.5 µM (inactive)
CCCc1cc(-c2ccc(-c3cc(CCC)c(C=O)[nH]3)s2)[nH]c1C=O | 15.1 µM (inactive)
COc1ccc(NC2=CC(=O)C(=O)c3ccccc32)nn1 | 1.92 µM (inactive)
O=C(N/N=C1\C(=O)N(c2nccs2)C(=O)C(=O)C1c1nc2ccccc2s1)c1ccccc1O (stereo not drawn) | > 100 µM (inactive)

Inquiry: Dear colleague, I am looking for the recorded GI50 of the following molecule: C#CCN(N=O)C(=O)NC(CCCCNC(=O)OCc1ccccc1)C(=O)OCc1ccccc1 (stereo not drawn)
Reply text: 24.5 µM (inactive)

Inquiry: Item: CCC1(O)C[C@H]2CN(CCCc3c([nH]c4ccccc34)[C@@](C(=O)OC)(c3cc4c(cc3OC)N(C)C3[C@](O)(C(=O)OC)[C@H](OC(C)=O)[C@]5(CC)C=CCN6CC[C@]43[C@H]65)C2)C1 (stereo partly drawn)
Reply text: 3.34 µM (inactive)

Inquiry: Try this molecule too: CN(NC(=O)c1ccc(Cl)cc1)C1=NCCCCN1
Reply text: > 100 µM (inactive)

Inquiry: For O=[N+]([O-])C(=C(\Cl)NCCO)/C(Cl)=C(/Cl)Br then?
Reply text: 4 µM (inactive)

Inquiry: Next record, please: NC(=O)c1cc2ccc(O)cc2o/c1=N/NC(=O)c1ccccc1
Reply text: > 100 µM (inactive)

Inquiry: Ok, now O=C1C(Cl)=C(N2CCN(C3=C(Cl)C(=O)c4ccccc4C3=O)CC2)C(=O)c2ccccc21
Reply text: 6.64 µM (inactive)

###

- Test system: SF-268
- assayComment: NCI tumour cell line growth inhibition, 48 h
Activity calls are given as the source filed them. Cut-off read from the data, not from the text of the source: active = GI50 up to about 1.1 µM and inactive = higher.
Reported GI50 values follow for various molecules

molecule | GI50
CCC1CN2CCc3c([nH]c4ccccc34)C2C[C@@H]1CC(=O)N(C)C (stereo partly specified) | > 100 µM (inactive)
O=c1c2ccccc2nnn1-c1n[nH]c2ccccc12 | > 100 µM (inactive)
COc1cc(C2c3cc4c(cc3OC(Nc3ccccc3)C2C)OCO4)cc(OC)c1O (stereo unspecified) | 7.48 µM (inactive)
COc1cc(N(C)C)c(OC)cc1/C=C\c1ccnc2ccccc12 | 3.63 µM (inactive)
CC(=O)OC12c3ccccc3-c3ccccc3C1C1C(=O)OC(=O)C12 (stereo unspecified) | > 10 µM (inactive)
Clc1ccc(/C=N/C23CC4CC(CC(C4)C2)C3)cc1Cl | > 10 µM (inactive)

Inquiry: Reported GI50 for CCOc1ccc2c(c1)[n+]([O-])c(S(=O)(=O)c1ccc(C)cc1)c(N)[n+]2[O-] : what is it?
Reply text: > 100 µM (inactive)

Inquiry: What do you have for CN/N=C(/Cc1occc(=O)c1O)C(=O)Nc1ccccc1C ?
Reply text: > 100 µM (inactive)

###

- Test system: SK-MEL-28
- assayComment: NCI tumour cell line growth inhibition, 48 h
The source made the active and inactive calls. Rule as the data show it: active = GI50 up to about 1.1 µM and inactive = higher. Bridge positions count the residues as written; N and C are the ends. Square brackets hold non-standard residues; d marks the D form. Peptide text beside a SMILES is read from it. I, II: the chains in the order shown. * marks the point of attachment. Quinoxaline2carbonyl = O=C(c1cnc2ccccc2n1)*; NMeV = CN[CH](C(=O)O)C(C)C; NMeC = CN[CH](CS)C(=O)O
Mark one answer only. Choices: active, inactive

molecule | className
C/C(=N/NC(=S)N(C)C)c1ccccc1O | inactive

Now consider the entry below.
Inquiry: What did the test return for CC1NC(=O)C(NC(=O)c2cnc3ccccc3n2)COC(=O)C(C(C)C)N(C)C(=O)C2CSSCC(C(=O)N(C)C(C(C)C)C(=O)OCC(NC(=O)c3cnc4ccccc4n3)C(=O)NC(C)C(=O)N2C)N(C)C1=O (configuration not stated) (I: Quinoxaline2carbonyl-SA[NMeC][NMeV] / II: Quinoxaline2carbonyl-SA[NMeC][NMeV]; ester I:1-II:C, I:C-II:1; disulfide I:3-II:3; configuration not given here) ?
Reply text: active
